Hello, the source for this data is PubChem BioAssay AID434970, in case you need it.

system: intestinal alkaline phosphatase [Mus musculus]; assay: mouse intestinal phosphatase enzyme activation – biochemical, luminescence, single concentration, confirmation (AID 434970); settings: purified mouse IAP, CDP-Star luminescence, 30 min, at 10 µM; measured here: IAP activation factor, stronger effect = higher value
Out of some 11,000 compounds screened, about 310 (2.8%) were called active. For the sample, actives were picked, then their nearest neighbours and some compounds at random.
Observable: activation factor
Lab note: record the figure alone, no unit after it.

Q. Give recorded activation factor. CCN(CC)S(=O)(=O)c1ccc(NC(=O)Cn2c(=O)sc3ccccc32)cc1
A. 1.31

Q. Give recorded activation factor. COc1ccc(NC(=O)Nc2ccc3c(c2)C(=O)N([C@H](C)CO)C[C@H](C)[C@@H](CN(C)S(=O)(=O)c2cccs2)O3)cc1
A. 2.1

Q. Give recorded activation factor. CC(C)OC(=O)CSc1nc2cccnc2n1C1CCCCC1
A. 0.982

Q. Give recorded activation factor. Cc1ccc(S(=O)(=O)C2CCOC2=O)cc1 (stereo unspecified)
A. 0.793

Q. Give recorded activation factor. C[C@H](CO)N1C[C@H](C)[C@@H](CN(C)S(C)(=O)=O)Oc2ccc(NC(=O)Nc3ccc(C(F)(F)F)cc3)cc2C1=O
A. 1.83

Q. Give recorded activation factor. CC(C)c1ccc(NC(=O)NC(C)c2ccc3c(c2)OCO3)cc1 (stereo unspecified)
A. 3.31

Q. Give recorded activation factor. CC1CCCN(C(C(=O)Nc2ccc(C(C)C)cc2)c2ccc3c(c2)OCO3)C1 (stereo unspecified)
A. 1.73

Q. Give recorded activation factor. CCNC(=O)COc1cc(C)c(Cl)c(C)c1
A. 1

Q. Give recorded activation factor. COC(=O)c1ccccc1NC(=O)CCS(=O)(=O)c1ccc(Br)s1
A. 1.05

Q. Give recorded activation factor. COc1ccc(NC(=O)Nc2ccc3c(c2)C(=O)N([C@H](C)CO)C[C@H](C)[C@@H](CN(C)C(=O)Nc2ccc(C(F)(F)F)cc2)O3)cc1
A. 1.69

Q. Give recorded activation factor. Cc1ccc(NC(=O)N/C=C/c2ccc(Cl)cc2)cc1
A. 1.09

Q. Give recorded activation factor. CCOC(=O)CC1(c2ccccc2)CCOC(C)(C)C1 (stereo unspecified)
A. 0.94

Q. Give recorded activation factor. CC(NC(=O)Nc1ccc(Cl)cc1)c1ccccc1 (stereo unspecified)
A. 2.11

Q. Give recorded activation factor. COC(=O)c1ccccc1NC(=O)CN(CCc1ccccc1)S(C)(=O)=O
A. 1.04

Q. Give recorded activation factor. C[C@H](CO)N1C[C@H](C)[C@@H](CN(C)C(=O)Nc2ccc(C(F)(F)F)cc2)Oc2ccc(NC(=O)NC3CCCCC3)cc2C1=O
A. 1.76

Q. Give recorded activation factor. C[C@H](CO)N1C[C@H](C)[C@@H](CN(C)S(=O)(=O)c2cccs2)Oc2ccc(NC(=O)Nc3ccc4c(c3)OCO4)cc2C1=O
A. 1.88

---

test system: intestinal alkaline phosphatase [Mus musculus]; test: mouse intestinal phosphatase enzyme activation – biochemical, luminescence, single concentration, confirmation (AID 434970); conditions: purified mouse IAP, CDP-Star luminescence, 30 min, at 10 µM; measured here: IAP activation factor, stronger effect = higher value
About 310 (2.8%) of roughly 11,000 compounds were called active. The full list was thinned out, with actives kept by preference.
Observable: activation factor
Lab note: record the figure alone, no unit after it.

Q. Give recorded activation factor. COc1ccc(NC(=O)N(C)C[C@H]2Oc3ccc(NC(=O)NC4CCCCC4)cc3C(=O)N([C@H](C)CO)C[C@@H]2C)cc1
A. 1.61

Q. Give recorded activation factor. Cc1cc(C)c(NC(=S)NC(NC(=O)c2ccccc2)C(Cl)(Cl)Cl)c(C)c1 (centres undefined)
A. 1.28

Q. Give recorded activation factor. Cc1ccccc1NC(=S)NC(NC(=O)COc1ccccc1)C(Cl)(Cl)Cl (centres undefined)
A. 1.73

Q. Give recorded activation factor. Cc1cc(C)n2cc(CSc3nnnn3-c3ccccc3)nc2n1
A. 0.946
